system: store-operated Ca^2+ entry in PLP-B lymphocytes; assay: Store-operated Ca2+ entry after thapsigargin depletion of ER Ca2+ stores in PLP-B lymphocytes; format: cell-based; settings: Lymphocyte, 0.1 μM; PLP-B lymphocytes; % of inhibition (−) or activation; DMSO control 100%; read-out: Effect on amplitude of SOCE Peak
# Lookup of reported inhibition at 0.1 µM keyed by entry
Value expressed in %; do not type the unit.

Worked cases, answers included:
CS(=O)(=O)Oc1ccc(Cn2cncn2)cc1    19
c1ccc2c(c1)cnn2CCc1ccc(OC2CCCCO2)cc1 (centres unmarked)    23
COc1ccccc1CCOc1ccc(CCn2cnc3ccccc32)cc1    -12.9
Fc1ccc2c(c1)ncn2CCc1ccc(OCCc2ccc(OC3CCCCO3)cc2)cc1 (centres unmarked)    -67
c1ccc2c(c1)ncn2CCc1ccc(OCCc2ccc(OC3CCCCO3)cc2)cc1 (centres unmarked)    -28
COc1ccc(CCCOC(Cn2ccnc2)c2ccc(OC)cc2)cc1 (centres unmarked)    3.4

Query :: Returns the measured inhibition at 0.1 µM for the input molecule. Input: COc1cccc(CCOc2ccc(CCn3cnc4ccccc43)cc2)c1
Result :: -12.9

Query :: Let us now turn to COc1ccc(CCOc2ccc(CCn3cnc4ccccc43)cc2)cc1
Result :: 3
